Target: CIB1 and αIIb interaction (CIB1-GST : F-αIIb peptide) (Homo sapiens)
Construct: made in house; host or cells: BL-21 plus RIL cells (E. coli)
Sequence (Q99828 whole entry): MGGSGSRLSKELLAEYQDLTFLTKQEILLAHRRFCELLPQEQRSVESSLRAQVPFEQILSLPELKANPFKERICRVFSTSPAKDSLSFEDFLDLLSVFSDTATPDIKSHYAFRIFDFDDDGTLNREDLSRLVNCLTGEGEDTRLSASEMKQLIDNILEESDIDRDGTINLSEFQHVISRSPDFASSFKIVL
Experiment: FP assay, 1536-well qHTS format (primary and confirmatory screen)
Type: binding
Details: qHTS primary screen hits, Table S2; read-out: IC50
Property Name: pIC50
Expect pIC50 as a plain number equal to -log10 of the molar concentration.

Guide cases for pIC50, answers given:
O=S(=O)(O)c1ccc2cc(/N=N/c3cc(S(=O)(=O)O)c4cccnc4c3O)ccc2c1 [NCGC00013917-09] | 4.84
CN(Cc1cnc2nc(N)nc(N)c2n1)c1ccc(C(=O)N[C@@H](CCC(=O)O)C(=O)O)cc1 [NCGC00260705-01] | 4.35
Cl.O=[N+]([O-])c1ccc(CNc2ccc(S(=O)(=O)Nc3nccs3)cc2)c(O)c1 [NCGC00273519-01] | 5.10
Cl.Cl.Nc1ccc(/N=N/c2ccccc2)c(N)n1 [NCGC00018130-09] | 4.10
Nc1cccc2c(N)cccc12 [NCGC00091284-03] | 3.95
Nc1nc2c(s1)C(c1ccccc1)CC(=O)N2 (centres unmarked) [NCGC00422009-03] | 4.10

[in] Value lookup for pIC50; key = O=C(O)C(F)(F)F.O=C1CCCC2=C1C(c1cccnc1Br)N=C(Nc1nc3ccccc3o1)N2 (centres unmarked) [NCGC00189281-01]
[out] 4.60

[in] Look up pIC50 for this molecule: Cc1ccc(S(=O)(=O)Nc2cnccc2C(=O)Nc2nc(-c3ccc(Cl)cc3)cs2)cc1.O=C(O)C(F)(F)F [NCGC00318981-01]
[out] 4.50

---

Target: CIB1 and αIIb interaction (CIB1-GST : F-αIIb peptide) (Homo sapiens)
Construct: made in house; host or cells: BL-21 plus RIL cells (E. coli)
Assay: FP assay, 1536-well qHTS format (primary and confirmatory screen)
Assay type: binding
Conditions: qHTS FP screen hits, Table S2; one class per curve where COUNT > 1; negative sign = inhibitory curve
Reported Curve Class values for a set of compounds
Reply with the value as a number alone.

# count of solved cases: 3
CCCCC(CC)CNC(=N)NC(=N)NCCCCCCNC(=N)NC(=N)NCC(CC)CCCC.Cl.Cl.Cl (stereo not shown) [NCGC00178352-06] | -1.2
CN1CCCN(C(=O)c2cccc(-c3ccc(/C=C4/C(=O)Nc5ccc(Cl)cc54)o3)c2)CC1 [NCGC00346935-01] | -2.2
Cc1coc2c1C(=O)C(=O)c1c-2ccc2c(C)cccc12 [NCGC00247624-03] | -2.2

Moving on to the next compound.
[in] Param item = O=C(c1ccccc1)c1c(O)cc(O)cc1O[C@@H]1O[C@H](CO)[C@@H](O)[C@H](O)[C@H]1O [NCGC00384934-01] ; retrieve measured Curve Class.
[out] -1.2

---

Entries annotated with measured pIC50
Target: GST-CIB1 : F-scrambled peptide (Homo sapiens, UniProt Q99828)
Construct: made in house; host or cells: BL-21 plus RIL cells (E. coli)
Sequence (Q99828 whole entry): as above
Assay: FP scrambled-peptide counter screen, 384-well format
Format: binding
Settings: F-scrambled peptide; read-out: 384-well COUNTERSCREEN IC50
pIC50: −log10 of the molar value.

Worked examples follow.
Cn1sc(=O)n(Cc2ccccc2)c1=O | < 3.92
C=CCNc1oc(-c2cccc3ccccc23)nc1C#N.O=C(O)C(F)(F)F | 5.35

[in] Tell me the measured pIC50 of CC(C)=CCC[C@]1(C)C=Cc2c(O)c3c(c(CC=C(C)C)c2O1)O[C@]12C(=C[C@@H]4CC1C(C)(C)O[C@@]2(C/C=C(/C)C(=O)O)C4=O)C3=O , please.
[out] < 3.92
